- testTarget: bovine TAP1 (bovine)
- test: cell-based or functional assay
Assignment: determine reported MHC-I surface expression relative to BHV-1 wt-infected MDBK cells for the given binders.
// note: answer is a bare numeric in fold

Problem: Please give the measured MHC-I surface expression relative to BHV-1 wt-infected MDBK cells for this binder: BHV-1 UL49.5 30AAA32 (other) DPLLDAMAAAGAMDFWSAGCYARGVPLSEPPQALVVFYVALTAVMVAVALYAYGLCFRLMGASGPNKKESRGRG
Solution: 2

Problem: Next entry: BHV-1 UL49.5Δ30-32 (other) DPLLDAMGAMDFWSAGCYARGVPLSEPPQALVVFYVALTAVMVAVALYAYGLCFRLMGASGPNKKESRGRG
Solution: 2

Problem: Next entry: BHV-1 UL49.5Δ30-32 CT-null (other) DPLLDAMGAMDFWSAGCYARGVPLSEPPQALVVFYVALTAVMVAVALYAYGLCF
Solution: 2.5

Problem: Next entry: BHV-1 UL49.5 CT-null (other) DPLLDAMRREGAMDFWSAGCYARGVPLSEPPQALVVFYVALTAVMVAVALYAYGLCF
Solution: 1.3

Problem: Next entry: BHV-1 UL49.5 30AAA32 CT-null (other) DPLLDAMAAAGAMDFWSAGCYARGVPLSEPPQALVVFYVALTAVMVAVALYAYGLCF
Solution: 2.5

Ref: patent US20130034585A1
